Target: Phospho-N-acetylmuramoyl-pentapeptide-transferase (Bacillus subtilis (strain 168), UniProt Q03521)
Sequence (Q03521 whole entry): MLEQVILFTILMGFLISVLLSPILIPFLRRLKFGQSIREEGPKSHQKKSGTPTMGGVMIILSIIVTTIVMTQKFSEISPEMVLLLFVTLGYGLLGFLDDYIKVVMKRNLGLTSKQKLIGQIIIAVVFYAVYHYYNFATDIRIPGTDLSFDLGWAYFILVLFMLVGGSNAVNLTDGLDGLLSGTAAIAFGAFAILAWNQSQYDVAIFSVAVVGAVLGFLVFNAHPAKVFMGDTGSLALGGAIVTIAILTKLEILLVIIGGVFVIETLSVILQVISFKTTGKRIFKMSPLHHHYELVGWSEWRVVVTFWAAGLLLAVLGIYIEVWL
Experiment: Inhibition of Bacillus subtilis MraY
readout-label: IC50 (nM)
Quick reminder: number only, in nM, skip the unit.

Tell me measured IC50 for "NC[C@H]1O[C@@H](O[C@@H](Cn2cc(CCCCCO)nn2)[C@H]2O[C@@H](n3ccc(=O)[nH]c3=O)[C@H](O)[C@@H]2O)[C@H](O)[C@@H]1O" please. 400
